- TARGET OR TEST SYSTEM: Neutrophil elastase (Homo sapiens, UniProt P08246)
- Sequence (P08246 whole entry): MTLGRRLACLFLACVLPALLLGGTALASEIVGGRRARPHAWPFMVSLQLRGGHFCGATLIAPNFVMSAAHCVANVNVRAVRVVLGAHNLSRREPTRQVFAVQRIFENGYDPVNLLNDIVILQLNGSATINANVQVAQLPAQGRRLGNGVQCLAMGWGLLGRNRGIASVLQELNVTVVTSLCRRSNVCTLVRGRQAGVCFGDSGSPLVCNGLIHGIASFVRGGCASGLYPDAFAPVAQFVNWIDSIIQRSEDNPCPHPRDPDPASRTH
- TEST DESCRIPTION: Inhibition of human neutrophil elastase using N-methylsuccinyl-Ala-Ala-Pro-Val-7-amino-4-methylcoumarin as substrate measured for every 30 sec for 10 mins by fluorescence based assay
- CONDITION DETAILS: read-out: IC50
Provide the reported log10 IC50 of each item.
// units: nM (pre-log); metric: IC50; scale: log10

Any idea what log10 IC50 was measured for `O=C(C1CC1)n1nc([N+](=O)[O-])c2cccnc21` ?
1.32

Would you mind doing `Cc1cccc(C(=O)n2nc(C)c3cnccc32)c1` as well?
2.88

Also `Nc1nn(C(=O)C2CC2)c2ncccc12` , if possible.
4.00

Then this molecule: `N#Cc1nn(C(=O)C2CCCC2)c2ncccc12`
2.15

For `O=C(C1CC1)n1ccc2nccnc21` then?
3.90

Try this molecule next: `N#Cc1nn(C(=O)c2ccccc2)c2ncccc12`
2.20

What do you get for `CCOC(=O)c1nn(C(=O)C2CC2)c2ccncc12` ?
1.84

Would you mind doing `CCOC(=O)c1nn(C(=O)c2cccc(C)c2)c2ncccc12` as well?
3.30

Would you mind doing `N#Cc1nn(C(=O)C2CC2)c2ncccc12` as well?
1.53

Please do the same for `N#Cc1nn(C(=O)C2CCCCC2)c2ncccc12` as well.
3.04

###

- TARGET OR TEST SYSTEM: Neutrophil elastase (Homo sapiens)
- TEST DESCRIPTION: Inhibition of human neutrophil elastase using N-methylsuccinyl-Ala-Ala-Pro-Val-7-amino-4-methylcoumarin as substrate measured for every 30 sec for 10 mins by fluorescence based assay
- CONDITION DETAILS: read-out: IC50
OBSERVATION TYPE: IC50 (nM)
# output: bare number, implied unit nM

Give the measured IC50 of `N#Cc1cn(C(=O)C2CC2)c2cccnc12` .
23

Now consider `N#Cc1nn(C(=O)C2CC2)c2ccncc12` and answer again.
79

Also need `O=C(C1CC1)n1nc(C(F)(F)F)c2cccnc21` , thanks.
50

Would you kindly repeat that for `O=C(C1CC1)n1nc(C(F)(F)F)c2cnccc21` ?
87

# repeat for `Cc1cccc(C(=O)n2nc(C(F)(F)F)c3cnccc32)c1`
33

Also check `Cc1ccc(C(=O)n2nc(C#N)c3cccnc32)cc1`
1500

Can you check `Cc1cccc(C(=O)n2nc(C#N)c3cnccc32)c1` next?
10

Another compound: `CCOC(=O)c1nn(C(=O)c2cccc(C)c2)c2ccncc12`
16

What about this compound? `Cc1cccc(C(=O)n2nc(C#N)c3cccnc32)c1`
330

# iterate: `N#Cc1cn(C(=O)C2CC2)c2cnccc12`
183

Another compound to look at: `Cc1cccc(C(=O)n2nc(C(F)(F)F)c3cccnc32)c1`
420

Same thing, different compound: `Cc1cccc(C(=O)n2nc(C(=O)OC(C)C)c3cccnc32)c1`
980

###

- TEST DESCRIPTION: Stability of compound in PBS at pH 7.4 assessed as half life by spectrophotometry
- Format: physicochemical
- CONDITION DETAILS: buffer
OBSERVATION TYPE: t1/2

Consider the molecule shown here: `Cc1cccc(C(=O)n2nc(C#N)c3cnccc32)c1` What is its recorded t1/2?
0.203 h

Repeat with `N#Cc1cn(C(=O)C2CC2)c2cccnc12`
4.472 h

// same read-out, input: `Cc1cccc(C(=O)n2cc(C#N)c3cnccc32)c1`
2.722 h

Same lookup for `O=C(C1CC1)n1nc(C(F)(F)F)c2cccnc21` , please.
14.7 h

Field entry: `N#Cc1nn(C(=O)C2CC2)c2ccncc12`
1.32 h

Same read-out for `O=C(C1CC1)n1nc(C(F)(F)F)c2cnccc21` ?
6.435 h

Record: `CCOC(=O)c1nn(C(=O)c2cccc(C)c2)c2ccncc12`
2.45 h

Moving on to `CCOC(=O)c1nn(C(=O)C2CC2)c2ccncc12`
7.28 h

And then `N#Cc1cn(C(=O)C2CC2)c2nccnc12` , what is it?
1.677 h

Likewise for `O=C(C1CC1)n1nc([N+](=O)[O-])c2cccnc21` ?
1.56 h

How about this molecule: `Cc1cccc(C(=O)n2nc(C(F)(F)F)c3cnccc32)c1`
1.777 h

And the next one, `Cc1cccc(C(=O)n2cc(C#N)c3ncccc32)c1` ?
1.28 h
